# test.target: ROCK2 (Homo sapiens)
# assay.text: DiscoverX kinome screen
# Format: binding
# Parameters: are incubated with DNA-tagged kinase domains tagged; DNA tag; purchased DiscoverX
# condition.summary: 10,000 nM API
# Sequence (O75116 92-354 limits assumed): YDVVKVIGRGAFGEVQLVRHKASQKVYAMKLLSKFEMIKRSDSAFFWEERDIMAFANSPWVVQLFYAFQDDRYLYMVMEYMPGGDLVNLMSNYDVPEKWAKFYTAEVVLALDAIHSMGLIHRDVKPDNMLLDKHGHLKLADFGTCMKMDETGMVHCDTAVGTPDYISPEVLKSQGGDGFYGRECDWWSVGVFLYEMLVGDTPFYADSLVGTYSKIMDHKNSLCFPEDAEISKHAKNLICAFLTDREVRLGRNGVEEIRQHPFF
experimental.readout: Kinome Screen % inhibition ROCK2

Worked examples, 3 compounds total:
C[C@H](N)C1CCN(S(=O)(=O)c2cccc3c(=O)[nH]ccc23)CC1 [BA-2057]
>96%
C[C@@H](N)C1CCN(S(=O)(=O)c2cccc3cnccc23)CC1 [BA-1049]
>99%
C[C@H](N)C1CCN(S(=O)(=O)c2cccc3cnccc23)CC1 [BA-1076]
>99%

Now let's try a different one.
// query Kinome Screen % inhibition ROCK2 value for entry C[C@@H](N)C1CCN(S(=O)(=O)c2cccc3c(=O)[nH]ccc23)CC1 [BA-2017] >99%

====

# test.target: ROCK2 (Homo sapiens, UniProt O75116)
# assay.text: Direct filter-binding radiometric kinase assay (Eurofins) at Km ATP
# Format: biochemical
# Design: purchased Eurofins Testing (Dundee, Scotland, UK)
# condition.summary: IC50 at respective Km ATP
# Sequence (O75116 whole entry): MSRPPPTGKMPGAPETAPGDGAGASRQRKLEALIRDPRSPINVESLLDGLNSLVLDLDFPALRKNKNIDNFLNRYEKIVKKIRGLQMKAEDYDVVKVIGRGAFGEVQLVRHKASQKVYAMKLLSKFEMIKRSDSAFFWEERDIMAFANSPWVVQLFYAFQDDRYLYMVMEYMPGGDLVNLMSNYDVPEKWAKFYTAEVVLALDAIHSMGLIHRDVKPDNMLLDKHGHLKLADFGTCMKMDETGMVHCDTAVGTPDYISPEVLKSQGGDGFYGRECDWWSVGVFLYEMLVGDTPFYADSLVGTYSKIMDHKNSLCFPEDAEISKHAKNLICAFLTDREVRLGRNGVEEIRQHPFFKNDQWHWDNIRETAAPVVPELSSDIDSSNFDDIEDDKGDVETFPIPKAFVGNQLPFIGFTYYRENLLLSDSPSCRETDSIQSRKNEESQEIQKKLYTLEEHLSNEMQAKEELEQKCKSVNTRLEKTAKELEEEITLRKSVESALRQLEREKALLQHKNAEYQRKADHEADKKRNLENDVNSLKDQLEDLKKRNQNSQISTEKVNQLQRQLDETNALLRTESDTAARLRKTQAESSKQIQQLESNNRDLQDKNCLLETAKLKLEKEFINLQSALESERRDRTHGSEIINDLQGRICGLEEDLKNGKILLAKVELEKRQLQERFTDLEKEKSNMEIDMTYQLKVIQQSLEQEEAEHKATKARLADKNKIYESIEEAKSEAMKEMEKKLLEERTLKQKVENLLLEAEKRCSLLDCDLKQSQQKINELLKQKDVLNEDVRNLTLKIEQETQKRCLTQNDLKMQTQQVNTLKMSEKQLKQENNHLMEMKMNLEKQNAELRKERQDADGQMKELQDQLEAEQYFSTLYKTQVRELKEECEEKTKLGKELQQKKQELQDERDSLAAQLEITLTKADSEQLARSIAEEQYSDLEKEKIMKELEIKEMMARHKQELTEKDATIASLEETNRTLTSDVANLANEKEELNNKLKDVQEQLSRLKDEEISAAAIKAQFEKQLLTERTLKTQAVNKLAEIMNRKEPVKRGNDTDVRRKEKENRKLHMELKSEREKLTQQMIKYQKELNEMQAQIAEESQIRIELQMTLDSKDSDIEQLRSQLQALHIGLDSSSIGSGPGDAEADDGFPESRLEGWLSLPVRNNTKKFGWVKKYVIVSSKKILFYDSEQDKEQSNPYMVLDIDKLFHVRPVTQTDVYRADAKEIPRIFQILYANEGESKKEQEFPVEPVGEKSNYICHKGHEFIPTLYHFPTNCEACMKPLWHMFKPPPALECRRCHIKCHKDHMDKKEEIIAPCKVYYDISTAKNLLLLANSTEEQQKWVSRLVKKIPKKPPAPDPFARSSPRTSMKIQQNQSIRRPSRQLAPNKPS
Readings of ROCK1/ROCK2 (fold difference) for the listed compounds

Worked examples, 3 compounds total:
C[C@H](N)C1CCN(S(=O)(=O)c2cccc3cnccc23)CC1 [BA-1076]
55.5
C[C@@H](N)C1CCN(S(=O)(=O)c2cccc3c(=O)[nH]ccc23)CC1 [BA-2017]
16.5
C[C@H](N)C1CCN(S(=O)(=O)c2cccc3c(=O)[nH]ccc23)CC1 [BA-2057]
48.0

Now let's try a different one.
// query ROCK1/ROCK2 (fold difference) value for entry C[C@@H](N)C1CCN(S(=O)(=O)c2cccc3cnccc23)CC1 [BA-1049] 43.4

====

# test.target: 468-target kinome screen
# assay.text: DiscoverX kinome screen, off-target hits
# Type: binding, human
# condition.summary: 10,000 nM API
experimental.readout: Kinome Screen Other (other off-target kinase)

C[C@H](N)C1CCN(S(=O)(=O)c2cccc3cnccc23)CC1 [BA-1076]
(ABL)
C[C@H](N)C1CCN(S(=O)(=O)c2cccc3c(=O)[nH]ccc23)CC1 [BA-2057]
none
C[C@@H](N)C1CCN(S(=O)(=O)c2cccc3cnccc23)CC1 [BA-1049]
none
C[C@@H](N)C1CCN(S(=O)(=O)c2cccc3c(=O)[nH]ccc23)CC1 [BA-2017]
GRK1
